- System: LOX IMVI
- Experiment notes: NCI tumour cell line growth inhibition, 48 h
Activity calls are given as the source filed them. Cut-off read from the data, not from the text of the source: active = GI50 up to about 1.1 µM and inactive = higher.
Result type: GI50

Ask: Answer with the recorded GI50 for the compound listed here: C#CC1(O)C(COP(=O)(O)OCC2OC(n3ccc(NCCCCCCCCCCCCCCCCCC)nc3=O)C(O)C2O)OC(n2ccc(N)nc2=O)C1O (stereo not given)
Result: 0.048 µM (active)

Ask: Supply GI50 value. Item: COc1ccc(C)cc1Nc1nnc(-c2ccccc2N)s1
Result: 47.1 µM (inactive)

Ask: Note GI50 for the compound shown: CCOC(=O)C(NC(=O)CC(C)C)(NC(C)C)C(F)(F)F (stereo not given)
Result: > 100 µM (inactive)

Ask: Write down GI50 measured for item COCN1CCN=c2c1c1c3c(c4ccccc4n23)CCC1
Result: > 100 µM (inactive)

Ask: Provide measured GI50 value, entry: C=CCc1cc(-c2cc(CC=C)c(O)c(CNC)c2)cc(CNC)c1O
Result: 13.3 µM (inactive)

Ref: ChEMBL document CHEMBL1201862
